Test System: cynomolgus TSLPR on Ba/F3-cTSLPR-cIL7Ra cells (cynomolgus monkey)
Test Method Notes: cell-based or functional assay
Overview of recorded IC50 Assay II, Ba/F3-cyTSLPR proliferation for various binders
Readout Type: IC50 Assay II, Ba/F3-cyTSLPR proliferation (µg/mL)

{"columns": ["Binder", "Units Symbol", "Observed Value"],
 "data": [
  ["mouse anti human TSLPR antibody 13H5 (antibody, mouse IgG1, V domains shown, Mouse IgG1/kappa purified from hybridoma supernatant; also called m13H5; LB55.13H5.2C3) VH: QVLLKQSGPSLVQPSQSLSITCTVSGFSLSRYGVHWVRQSPGKGLEWLGVIWRSGSTDYNAAFMSRLSITQDNSKSQVFFNMNSLQSDDSAIYYCAKKAFYVMDYWGQGTSVTVSS VL: DIQMTQTTSSLSASLGDRVTISCRASQDISIYLNWYQQKPDGTVKLLIYYTSRLHSGVPSRFSGSGSGTNFSLTITNLEEEDIATYFCQQGNTLPWTFGGGTKLEIKR", "µg/mL", 0.0148],
  ["mouse antibody 54A11 (antibody, mouse IgG2a, V domains shown, Mouse IgG2a/kappa from hybridoma; also called m54A11; LB55.54A11.3D6) VH: EVQLQQSGPELVKPRASVKISCKASGYSFTGYYIHWVKQSHVKSLEWIGRINPYNGATIYNPNFKDKASLTVDKSSSTAFMEVHSLTSEDSAVYYCARSYGYVNYFDYWGQGTTLTVSS VL: EIVLTQSPATLSVTPGDSVSLSCRASQSISNNLHWYHQKSHESPRLLIKFGFQSISGIPSRFSGSGSGTDFTLSINSVETEDFGMYFCQQTNSWLTFGAGTKLELKR", "µg/mL", 0.153]
]}
